Tested on: LOX IMVI melanoma
Assay: NCI-60 one-dose screen, 48 h
Conditions: 10 µM unless noted
Compounds without any hit were thinned out: in the full panel of roughly 83,000, 20% have a hit. Calls of active or inactive are those of the source. Rule for the calls: active = growth percent below 10; inactive = the rest.
Hello, when you answer, please use one of the following outcomes: active, inactive

Worked set:
COMPOUND	TARGET_ENTITY	QUALITATIVE_LABEL
c1ccc(CO[C@H]2CO[C@H]3[C@@H]2OC[C@@H]3Oc2ccc(Nc3ncnc4ccsc34)cc2)cc1	LOX IMVI melanoma	inactive
Cc1ccc2sc3c(NCCN)nc4ccccc4c3c(=O)c2c1	LOX IMVI melanoma	inactive
COc1cc(/C=C/c2ccccc2)cc(OC)c1	LOX IMVI melanoma	inactive
CCOC(=O)c1sc2ncc(-c3ccc(OC)cc3)n2c1C	LOX IMVI melanoma	inactive
CCCCCCn1c(-c2ccc(C(=O)O/N=C(\N)c3ccc4c(c3)OCO4)cc2)nc(-c2ccccc2)c1-c1ccccc1	LOX IMVI melanoma	active
CCCCOc1nc2c(C)cccc2cc1-c1cc(-c2ccc(Cl)cc2)nc(-c2ccc(Cl)cc2)c1	LOX IMVI melanoma	inactive

Exercise: Could you check what this test reported for `NS(=O)(=O)c1ccc(N=Nc2ccc(-c3nn4cc(-c5ccccc5)nc4s3)cc2)cc1` ?
Solution: inactive

Exercise: Returns: the outcome recorded for `Cn1cc(-c2ccc3cc(-c4ccc(CC(=O)Nc5cc(C(C)(C)C)nn5C)cc4)cnc3c2)cn1` in this assay.
Solution: inactive

Exercise: Answer briefly: the call reported for O=C1CSC(c2c(Cl)cccc2Cl)N1c1nc(Cl)cc(=O)[nH]1 (stereo not drawn) in this assay.
Solution: inactive

Exercise: // param item: COc1ccc(S(=O)(=O)n2cc(C3OC(c4cc(OC)c(OC)c(OC)c4)=NN3C(C)=O)c3ccccc32)cc1OC (stereo not drawn) ; yields the recorded call
Solution: inactive

Exercise: Dear all, I need the recorded test outcome for CNc1nc2c(s1)C(c1cc(F)ccc1F)CC(=O)N2 (stereo not drawn) , thank you.
Solution: inactive

Exercise: Field: outcome | Entry: `O=c1cc(SCc2ccccc2)nc[nH]1`
Solution: inactive

Exercise: Test call, this compound: `CN1CCN(Cc2ccc(NC(=O)c3cncc(C#Cc4cnccc4C#N)c3)cc2C(F)(F)F)CC1`
Solution: inactive

Exercise: Short answer needed: outcome of this test for OC(COc1ccccc1)CN1CCN(c2ccc(Cl)cc2)CC1 (stereo not drawn) ?
Solution: inactive

Exercise: Look up the recorded call for `O=C(O)CCC(=O)Nc1nnc(-c2ccccc2)s1` in this test.
Solution: inactive

Exercise: Outcome? `N#C/C(=C\c1ccc(F)cc1)n1nc2cccc(F)c2n1`
Solution: inactive

Exercise: Test call, this compound: `COc1cccc(-c2nn(-c3ccccc3)cc2-c2ccnc(N3CCOCC3)c2)c1`
Solution: inactive

Exercise: // outcome(item) with item = CC1=NN(c2ccc(S(=O)(=O)O)cc2)C(=O)C1N=Nc1ccc(-c2ccc(N=Nc3ccc(OS(=O)(=O)c4ccc(C)cc4)cc3)c(S(=O)(=O)O)c2)cc1 (stereo not drawn)
Solution: inactive

Exercise: Can you look up the reported call for `C[N+]1=C(/C=C/c2ccc(O)c3ncccc23)C(C)(C)c2ccccc21` for me?
Solution: inactive

----------
Test system: T-47D breast
Experiment: NCI-60 one-dose screen, 48 h (100 = growth as untreated, 0 = no growth, -100 = all killed)
Settings: 10 µM unless noted
This is part of a sample that, as a whole, favours compounds with a hit. Of some 83,000 tested, about 20% had one in any assay. The source made the active and inactive calls. How the source made its calls: active means growth percent below 10; inactive means the rest.
Consider the following compounds and their measured growth readings.

                                   compound  endpoint        data_value
0  CCCCCCNC(=O)Oc1ccc(/C(=C(\C)c2ccc(Cl)cc2)c2ccc(OCCN(CC)CC)cc2)cc1    growth  39.7% (inactive)
1  O=C(CCN1C(=O)/C(=C/c2ccc(O)cc2)SC1=S)Nc1ccc(Cl)cc1    growth   102% (inactive)
2  CN(C)CCN1CCN(c2ncccc2C2Nc3ccccc3-n3cccc32)CC1 (centres undefined)    growth  90.1% (inactive)

Here's the next entry for you.
Exercise: // fetch growth; item: `Brc1c[n+](Cc2ccc3ccccc3c2)cn1Cc1ccc2ccccc2c1` ; system: T-47D breast
Solution: 6.91% (active)
